Tested on: U2OS
assay-procedure: mean cytoplasmic OPP incorporation (global translation) relative to DMSO (% of DMSO); higher = more protein synthesis
details: 10 µM; 24 h
Where a name gives a salt, the structure may show the parent alone. In all, about 3,100 compounds were measured (“mean cytoplasmic OPP incorporation (global translation) relative to DMSO”: median about 100, lowest 2% from about 56 on). The sample holds the lowest values, similar compounds and a random draw of the others, so the mix is not that of the screen.
metric: mean cytoplasmic OPP incorporation

Asked: Recorded mean cytoplasmic OPP incorporation for C[N+](C)([O-])CCNc1ccc(NCC[N+](C)(C)[O-])c2c1C(=O)c1c(O)ccc(O)c1C2=O [Banoxantrone dihydrochloride] , please?
Given back: 87.9

Asked: Request: N[C@@H](Cc1cc(I)c(Oc2ccc(O)cc2)c(I)c1)C(=O)O [3,5-Diiodo-L-thyronine]
Given back: 103

Asked: And then CC(C)C[C@H](NC(=O)N[C@H](C(=O)N[C@@H](CCC(N)=O)C(=O)N[C@@H](C)C=O)[C@@H]1CCNC(=N)N1)C(=O)O [Elastatinal] , what is it?
Given back: 98.9

Asked: Now try `Cc1cc(C)c(S(=O)(=O)Nc2ccccc2C(F)(F)F)c(C)c1` .
Given back: 97.3

Asked: Then what about the compound `O=C(c1ccc(Cl)cc1Cl)n1nnc2ccccc21` ?
Given back: 111

Asked: Next: O=C(CCCN1C(=O)c2cccc3cccc(c23)C1=O)NO [Nullscript]
Given back: 97.6

Asked: Can you check `N#C/C(=C\c1ccc(O)c(O)c1)C(=O)NCCCCc1ccccc1` next?
Given back: 87.8

Asked: // same read-out, input: `COc1cc2c(NC3CCN(C)CC3)nc(N3CCCN(C)CC3)nc2cc1OCCCN(C)C`
Given back: 112

Asked: Next up: `O=C1c2ccccc2C(=O)c2c(NCCc3ccc(O)cc3)ccc(NCCc3ccc(O)cc3)c21`
Given back: 120

* * *

Tested on: U2OS
assay-procedure: mean cytoplasmic OPP incorporation (global translation) relative to DMSO (% of DMSO); higher = more protein synthesis
details: 10 µM; 24 h
Structures can show the parent of a compound that is named as a salt. Whole data set: some 3,100 compounds, median “mean cytoplasmic OPP incorporation (global translation) relative to DMSO” near 100, cut for the lowest 2% near 56. This is one part of a sample in which the lowest values are shown more often than they occur.
We use 90 as the dividing line for mean cytoplasmic OPP incorporation: on or above the line is 1, below is 0.

Asked: Decide: mean cytoplasmic OPP incorporation of CC(C)[C@H]1c2ccc(F)cc2CC[C@@]1(CCN(C)CCCc1nc2ccccc2[nH]1)OC(=O)C1CC1 [NNC 55-0396 dihydrochloride] >= 90?
Given back: 0

Asked: What would you report for `O=C1Nc2ccc([N+](=O)[O-])cc2C1=O` ?
Given back: 1

Asked: Also need `CC(C)[C@H](C(=O)Nc1ccc(C(=O)NO)cc1)c1ccccc1` , thanks.
Given back: 0

Asked: Input Cn1cc(C2=C(c3cn(CCCSC(=N)N)c4ccccc34)C(=O)NC2=O)c2ccccc21 [Ro 31-8220 mesylate]
Given back: 0

Asked: Can you check CS(=O)(=O)Nc1ccc([N+](=O)[O-])cc1Oc1ccccc1 [Nimesulide] next?
Given back: 1

Asked: Could you do the same for `O=C1c2ccccc2-c2nc3nonc3nc21` , please?
Given back: 0

Asked: Next molecule: `C=CC(=O)Nc1cccc(Sc2nc(Nc3ccc(N4CCN(C)CC4)cc3)ncc2Cl)c1`
Given back: 0

Asked: Moving on to O=c1nc2ccccc2c2n1CC(CN1CCN(c3ccccc3)CC1)N2 (stereo not given)
Given back: 1

Asked: Another: `Cc1cnc(NC(=O)Nc2cc(Br)c(C)cc2OC[C@@H]2CNCCO2)cn1`
Given back: 0

Asked: What about CCN(CC)CCCC(C)Nc1ccnc2cc(Cl)ccc12 (stereo not given) ?
Given back: 1

Asked: Same question for CN(C)c1nc(N)c(C(=O)Nc2cccnc2)nc1Cl [ACDPP hydrochloride] please.
Given back: 1

Asked: And `Nc1nc(Nc2ccc(S(N)(=O)=O)cc2)nn1C(=O)c1c(F)cccc1F` ?
Given back: 0

Asked: Also `COc1ccc(CN2C(=O)C(=O)c3cc(OC(F)(F)F)ccc32)cc1` , if possible.
Given back: 1

Asked: Now try Cn1cc(C2=C(c3cn(CCCSC(=N)N)c4ccccc34)C(=O)NC2=O)c2ccccc21 [Ro 31-8220 Mesylate] .
Given back: 0

Asked: Can you handle CCCC(CCC)C(=O)NO [Valproic acid hydroxamate] next?
Given back: 1

* * *

Tested on: U2OS
assay-procedure: mean cytoplasmic OPP incorporation (global translation) relative to DMSO (% of DMSO); higher = more protein synthesis
details: 10 µM; 24 h
Over roughly 3,100 compounds, “mean cytoplasmic OPP incorporation (global translation) relative to DMSO” has its median near 100; the lowest 2% begin near 56. For the sample, the lowest values were picked, then their nearest neighbours and some compounds at random.
Would you mind labelling by mean cytoplasmic OPP incorporation? At or over 100 is Criterion met, under is Criterion not met.

Asked: hey, is mean cytoplasmic OPP incorporation for this one >= 100? `O=C1C(Cl)=C(NCCN2CCOCC2)C(=O)c2ncccc21`
Given back: Criterion not met

Asked: Can you handle `COc1cc(-c2cn(C)c(=O)c3cnccc23)c(OC)cc1CN(C)C` next?
Given back: Criterion not met

Asked: Can you handle `CCCS(=O)(=O)c1nc(NC2CC2)cc(-c2ccc3c(ccn3C3CC(C)(C)NC(C)(C)C3)c2)n1` next?
Given back: Criterion not met

Asked: # repeat for `CCN(C(=O)CO)[C@H]1CN(/C(=N\C#N)Nc2cccc(OC(F)F)c2)N=C1c1ccc(Cl)c(Cl)c1`
Given back: Criterion met

Asked: Try `CC(C)[C@H](N)C(=O)N[C@H](C(=O)N[C@H](C(=O)O)C(C)C)C(C)C` next.
Given back: Criterion met

Asked: Continue with `CC(C)CC(=O)Nc1n[nH]c2c1CN(C(=O)C1CCN(C)CC1)C2(C)C`
Given back: Criterion not met

Asked: And for `O=C1NC(=O)c2c1c(-c1ccccc1)cc1[nH]c3ccc(O)cc3c21` ?
Given back: Criterion not met

Asked: Let us now turn to `CC(=O)N[C@@H](CSCC=C(C)CCC=C(C)CCC=C(C)C)C(=O)O`
Given back: Criterion met

Asked: Next entry: `Oc1ccc(-c2nc3cc(O)cc(Br)c3o2)cc1`
Given back: Criterion not met

Asked: Param item: O=C(CCCCCCC(=O)NO)NO [Suberoyl bis-hydroxamic acid]
Given back: Criterion not met

Asked: // query: CSCCC(C=O)NC(=O)C(CC(C)C)NC(=O)[C@H](CC(C)C)NC(C)=O (some centres undefined)
Given back: Criterion met

Asked: Follow-up entry: CCO/C(O)=C1\C(C)=NC(c2ccccc2)=C(C(=O)OCc2ccc([N+](=O)[O-])cc2)C1C#Cc1ccccc1 (centres undefined)
Given back: Criterion met

Asked: Continue with OCC1OC(n2cnc3c(NC4CCCC4)nc(Cl)nc32)C(O)C1O (centres undefined)
Given back: Criterion met

Asked: Try this compound too: `Cc1nc(Nc2n[nH]c3c2CN(C(=O)N[C@H](CN(C)C)c2ccccc2)C3(C)C)c2sccc2n1`
Given back: Criterion not met

Asked: Entry `COc1cc(C(=O)NC(=S)Nc2cccc(NC(=O)c3ccccc3)c2)cc(OC)c1OC` please
Given back: Criterion met

Asked: Next: `Cc1ccc([N+](=O)[O-])cc1S(=O)(=O)N(C)/N=C/c1cnc2ccc(Br)cn12`
Given back: Criterion not met

* * *

System: U2OS
assay-procedure: mean cytoplasmic OPP incorporation (global translation) relative to DMSO (% of DMSO); higher = more protein synthesis
details: 10 µM; 24 h
Where a name gives a salt, the structure may show the parent alone. In all, about 3,100 compounds were measured (“mean cytoplasmic OPP incorporation (global translation) relative to DMSO”: median about 100, lowest 2% from about 56 on). Shown is part of a subset that was picked to be rich in the lowest values.
Decide using mean cytoplasmic OPP incorporation: a value greater than or equal to 90 is Yes, a smaller one is No.

Asked: Would you say `C[C@H]1CC[C@@]2(OC1)O[C@H]1C[C@H]3[C@@H]4CC[C@@H]5C[C@@H](O[C@@H]6O[C@H](CO)[C@H](O)[C@H](O)[C@H]6O[C@@H]6O[C@H](CO)[C@@H](O)[C@H](O)[C@H]6O)CC[C@]5(C)[C@H]4CC[C@]3(C)[C@H]1[C@@H]2C` shows mean cytoplasmic OPP incorporation at minimum 90?
Given back: Yes

Asked: Further, for `CCCCCCCCCCCCCCCC(=O)C1=C(O)[C@@H](CO)OC1=O` ?
Given back: Yes

Asked: What about this molecule? O=C(O)Cc1ccc(OCCNC[C@H](O)c2ccccc2)cc1 [ZD 2079 hydrochloride]
Given back: Yes

Asked: What do you have for Nc1ncn(C2CC(O)C(CO)O2)c(=O)n1 (stereo unspecified) ?
Given back: Yes

Asked: Subsequent entry: `CCCCCS(=O)(=O)CCCCCCCCCCn1c(-c2ccc(O)cc2)c(C)c2cc(O)ccc21`
Given back: Yes

Asked: Quick one: `CC(C)n1nc(-c2ccc3oc(N)nc3c2)c2c(N)ncnc21`
Given back: No

Asked: Let us now turn to CCCOC(=O)c1cc(O)c(O)c(O)c1 [N-Propyl gallate]
Given back: Yes

Asked: // repeat for COc1cccc2c1C(=O)c1c(O)c3c(c(O)c1C2=O)C[C@@](O)(C(C)=O)C[C@@H]3O[C@H]1C[C@H](N)[C@H](O)[C@H](C)O1 [Daunorubicin hydrochloride] and report
Given back: No

Asked: Record: `CCCCC[C@H](O)/C=C/[C@@H]1[C@H]2C/C(=C/CCCC(=O)O)C[C@H]2C[C@H]1O`
Given back: Yes

Asked: Can you check `CCCc1cc(C)[nH]c(=O)c1CNC(=O)c1cc(-c2ccnc(N3CCN(C)CC3)c2)cc2c1cnn2C(C)C` next?
Given back: Yes

Asked: Follow-up item: CN1CCC(c2c(O)cc(O)c3c(=O)cc(-c4ccccc4Cl)oc23)C(O)C1 (stereo unspecified) [Flavopiridol (Alvocidib) HCl]
Given back: No

Asked: Same question for `CC(C)c1ccc(Cn2ccc3c4c(N)nc(NC5CC5)nc4ccc32)cc1` please.
Given back: No

Asked: Please give the result for `CN1CCCN(C(=O)c2cccc(-c3ccc(/C=C4/C(=O)Nc5ccc(Cl)cc54)o3)c2)CC1` too.
Given back: No

Asked: Another molecule to check: COc1cccc2c1C(=O)c1c(O)c3c(c(O)c1C2=O)C[C@@](O)(C(=O)CO)C[C@@H]3O[C@H]1C[C@H](N)[C@H](O)[C@H](C)O1 [Doxorubicin hydrochloride]
Given back: No

Asked: Entry to check: `Cc1ccccc1-n1c(Cn2nc(-c3cccc(O)c3)c3c(N)ncnc32)nc2cccc(C)c2c1=O`
Given back: Yes

Asked: Then this molecule: O=[N+]([O-])c1ccc(Oc2ccc(Br)cc2)c(C(O)P(=O)(O)O)c1 (stereo unspecified)
Given back: Yes

Asked: Queued: `CN1CCN(C(=O)c2nc3ccc(Cl)cc3[nH]2)CC1`
Given back: No

Asked: Now try O=C(NCCN1CCCCC1)c1ccc(I)cc1 [N-[2-(Piperidinylamino)ethyl]-4-iodobenzamide] .
Given back: Yes

Asked: Then `Cc1ccc(NC(=O)c2ccc(CN3CC[C@H](N(C)C)C3)c(C(F)(F)F)c2)cc1Nc1nccc(-c2cncnc2)n1` ?
Given back: Yes

Asked: Similarly, C[C@H](NC(=O)/C(C#N)=C/c1ccc(O)c(O)c1)c1ccccc1 [Tyrphostin B44, (+) enantiomer] ?
Given back: Yes

Asked: Try this molecule too: `Cc1ccc([N+](=O)[O-])cc1S(=O)(=O)N(C)C`
Given back: Yes

Asked: What would you report for `CC(C)n1nc(-c2cc3cc(O)ccc3[nH]2)c2c(N)ncnc21` ?
Given back: No

Asked: Param item: `O=C(/C=C/C#Cc1cccc(NS(=O)(=O)c2ccccc2)c1)NO`
Given back: Yes

Asked: Query `COc1cccc2c1C(=O)c1c(O)c3c(c(O)c1C2=O)C[C@@](O)(C(=O)CO)C[C@@H]3O[C@H]1C[C@H](N)[C@H](O[C@@H]2CCCCO2)[C@H](C)O1` next
Given back: No

Asked: What do you have for Nc1ccc(CC(CC(=O)O)C(=O)O)cc1 (stereo unspecified) ?
Given back: Yes

Asked: What do you get for c1ccc2sc(N3CCN(Cc4ccc5c(c4)OCO5)CC3)nc2c1 [2-[1-(4-Piperonyl)piperazinyl]benzothiazole] ?
Given back: Yes

Asked: Also `Cc1cc(Cc2cc(C)cc(C(C)(C)C)c2O)c(O)c(C(C)(C)C)c1` ?
Given back: Yes

Asked: Try this molecule too: `O=C(O)Cc1nn(Cc2ccc(Br)cc2F)c(=O)c2ccccc12`
Given back: Yes

Asked: CC(=O)[C@]1(O)Cc2c(O)c3c(c(O)c2[C@@H](O[C@H]2C[C@H](N)[C@H](O)[C@H](C)O2)C1)C(=O)c1ccccc1C3=O [Idarubicin HCl] , same question.
Given back: No
